- EXPERIMENTAL TARGET: Melanocyte-stimulating hormone receptor (Homo sapiens)
- Sequence (Q01726 whole entry): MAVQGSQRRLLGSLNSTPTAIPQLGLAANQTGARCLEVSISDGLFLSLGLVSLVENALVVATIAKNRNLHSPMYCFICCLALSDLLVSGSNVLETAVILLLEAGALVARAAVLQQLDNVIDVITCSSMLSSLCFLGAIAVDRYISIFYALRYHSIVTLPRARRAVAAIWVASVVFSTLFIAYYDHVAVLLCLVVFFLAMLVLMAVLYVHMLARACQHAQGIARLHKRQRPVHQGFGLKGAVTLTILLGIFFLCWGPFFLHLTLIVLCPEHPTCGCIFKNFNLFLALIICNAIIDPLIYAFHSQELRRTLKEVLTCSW
- TEST DETAILS: Agonist activity at human MC1R expressed in HEK2936E cells assessed as cAMP production in presence of IBMX by time resolved fluorescence assay
- Assay type: functional, cell-based
- MEASUREMENT CONTEXT: hek2936e
# pEC50 listing for each entry below

COMPOUND	EXPERIMENTAL TARGET	pEC50
CC[C@H](C)[C@@H]1NC(=O)[C@@H]2CCCN2C(=O)[C@H](Cc2c[nH]c3ccccc23)NC(=O)[C@H](CCCNC(=N)N)N(C)C(=O)[C@H](Cc2ccccc2)NC(=O)[C@H](Cc2cnc[nH]2)NC(=O)[C@H]([C@@H](C)O)NC(=O)[C@H](NC(C)=O)CCSCc2ccccc2CSCC[C@H](C(N)=O)NC1=O	Melanocyte-stimulating hormone receptor (Homo sapiens)	8.67
CC[C@H](C)[C@@H]1NC(=O)[C@@H]2CCCN2C(=O)[C@H](Cc2c[nH]c3ccccc23)NC(=O)[C@H](CCCNC(=N)N)N(C)C(=O)[C@H](Cc2ccccc2)NC(=O)[C@H](Cc2cnc[nH]2)NC(=O)[C@H]([C@@H](C)O)NC(=O)[C@H](NC(C)=O)CCSCc2ccc(cc2)CSCC[C@H](C(N)=O)NC1=O	Melanocyte-stimulating hormone receptor (Homo sapiens)	8.4

Exercise: Observed pEC50 on Melanocyte-stimulating hormone receptor (Homo sapiens) for CC[C@H](C)[C@@H]1NC(=O)[C@@H]2CCCN2C(=O)[C@H](Cc2c[nH]c3ccccc23)NC(=O)[C@H](CCCNC(=N)N)N(C)C(=O)[C@H](Cc2ccccc2)NC(=O)[C@H](Cc2cnc[nH]2)NC(=O)[C@H]([C@@H](C)O)NC(=O)[C@H](NC(C)=O)CCSSCC[C@H](C(N)=O)NC1=O , please.
Key: 8.32

Exercise: Same for CC[C@H](C)[C@@H]1NC(=O)[C@@H]2CCCN2C(=O)[C@H](Cc2c[nH]c3ccccc23)NC(=O)[C@H](CCCNC(=N)N)N(C)C(=O)[C@H](Cc2ccccc2)NC(=O)[C@H](Cc2cnc[nH]2)NC(=O)[C@H]([C@@H](C)O)NC(=O)[C@H](NC(C)=O)CCSCc2cccc(c2)CSCC[C@H](C(N)=O)NC1=O
Key: 8.79

Taken from ChEMBL document CHEMBL5104192.
